Entries and their EC50
target: Luciferin 4-monooxygenase (Photinus pyralis); assay: inhibition of purified Photinus pyralis luciferase – biochemical, luminescence, dose response (AID 1891)
Sequence (P08659 whole entry): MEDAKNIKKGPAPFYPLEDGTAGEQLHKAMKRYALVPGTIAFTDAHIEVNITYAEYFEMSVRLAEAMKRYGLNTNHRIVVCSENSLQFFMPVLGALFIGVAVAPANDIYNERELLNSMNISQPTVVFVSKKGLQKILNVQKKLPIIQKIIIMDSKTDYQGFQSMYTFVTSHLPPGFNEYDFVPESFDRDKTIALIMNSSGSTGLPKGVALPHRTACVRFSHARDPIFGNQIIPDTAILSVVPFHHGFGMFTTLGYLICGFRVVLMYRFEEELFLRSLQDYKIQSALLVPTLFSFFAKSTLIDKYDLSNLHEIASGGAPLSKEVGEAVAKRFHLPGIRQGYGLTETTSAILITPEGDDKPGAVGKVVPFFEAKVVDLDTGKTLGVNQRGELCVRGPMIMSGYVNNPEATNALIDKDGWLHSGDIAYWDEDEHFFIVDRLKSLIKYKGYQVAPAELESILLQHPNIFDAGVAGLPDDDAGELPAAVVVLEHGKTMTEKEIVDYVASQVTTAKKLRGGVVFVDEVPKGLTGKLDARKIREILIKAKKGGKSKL
Calls of active or inactive are those of the source.
MEASURED_METRIC: EC50

> print(dat)
                                smiles.repr                            assayed.system                 result
1   Cc1ccnn1CC(=O)N/N=C/c1c[nH]nc1-c1ccccc1  Luciferin 4-monooxygenase (Photinus pyralis)  > 112 µM (not active)
2            Nc1nc(Nc2ccc(Cl)cc2)nc2ccccc12  Luciferin 4-monooxygenase (Photinus pyralis)      0.347 µM (active)
3  COc1cc2c(cc1OC)-c1cc(NC3CCCCCC3)nc(=O)n1CC2  Luciferin 4-monooxygenase (Photinus pyralis)  > 112 µM (not active)
4     Cc1ccc(-c2cc(N)n(Cc3ccc(Cl)cc3)n2)cc1  Luciferin 4-monooxygenase (Photinus pyralis)  > 112 µM (not active)
5  COc1ccc(C2=Nn3c(nnc3-c3cc(C)[nH]n3)SC2)cc1  Luciferin 4-monooxygenase (Photinus pyralis)  > 112 µM (not active)
6         Clc1ccccc1/C=C/c1nc(-c2ccccn2)no1  Luciferin 4-monooxygenase (Photinus pyralis)       1.87 µM (active)

---

target: Tyrosine-protein phosphatase non-receptor type 11 (Homo sapiens, UniProt Q06124); test: PTPN11 enzyme inhibitors – biochemical, selectivity assay for STEP inhibitor project, dose response (AID 602367); type: functional; conditions: read-out: IC50_Mean
Sequence (Q06124 whole entry): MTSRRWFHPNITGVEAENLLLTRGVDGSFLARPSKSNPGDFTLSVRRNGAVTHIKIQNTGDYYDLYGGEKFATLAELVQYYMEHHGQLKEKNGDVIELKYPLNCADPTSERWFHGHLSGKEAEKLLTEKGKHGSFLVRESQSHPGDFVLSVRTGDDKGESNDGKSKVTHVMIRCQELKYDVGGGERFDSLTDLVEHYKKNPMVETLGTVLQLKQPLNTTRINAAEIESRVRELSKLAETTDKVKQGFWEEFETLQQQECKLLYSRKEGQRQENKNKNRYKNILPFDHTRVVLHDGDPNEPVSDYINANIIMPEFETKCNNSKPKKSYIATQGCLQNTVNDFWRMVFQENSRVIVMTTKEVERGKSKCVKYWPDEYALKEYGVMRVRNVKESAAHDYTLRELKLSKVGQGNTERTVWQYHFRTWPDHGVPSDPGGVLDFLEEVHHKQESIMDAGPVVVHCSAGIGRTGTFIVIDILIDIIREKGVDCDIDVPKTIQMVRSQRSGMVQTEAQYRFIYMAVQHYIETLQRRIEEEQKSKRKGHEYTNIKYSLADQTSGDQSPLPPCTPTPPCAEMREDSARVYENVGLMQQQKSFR
Activity calls are given as the source filed them.
MEASURED_METRIC: IC50

> print(dat)
                                   compound  measured.metric             result
1        CN1CCN(C(=S)C(=O)Nc2ccc(Br)cc2)CC1             IC50    431 nM (active)
2  O=C(NCCCn1ccnc1)C(Cc1ccccc1)N1C(=O)c2ccccc2C1=O (centres undefined)             IC50  11800 nM (active)
3  Cn1c(=O)[nH]c(=O)c2c1nc(SCCN1CCCCC1)n2CCCc1ccccc1             IC50    599 nM (active)
4  COc1ccc(NC(=S)N(CCC(C)C)C2CCN(C(C)C)CC2)cc1Cl             IC50    676 nM (active)

---

biological target: Nucleotide-binding oligomerization domain-containing protein 2 (Homo sapiens); assay: inhibition of NOD2-driven NF-kB reporter – cell-based, luminescence, uHTS, HEK293 (AID 1566); format: functional
Sequence (Q9HC29 whole entry, the tested form may be a part): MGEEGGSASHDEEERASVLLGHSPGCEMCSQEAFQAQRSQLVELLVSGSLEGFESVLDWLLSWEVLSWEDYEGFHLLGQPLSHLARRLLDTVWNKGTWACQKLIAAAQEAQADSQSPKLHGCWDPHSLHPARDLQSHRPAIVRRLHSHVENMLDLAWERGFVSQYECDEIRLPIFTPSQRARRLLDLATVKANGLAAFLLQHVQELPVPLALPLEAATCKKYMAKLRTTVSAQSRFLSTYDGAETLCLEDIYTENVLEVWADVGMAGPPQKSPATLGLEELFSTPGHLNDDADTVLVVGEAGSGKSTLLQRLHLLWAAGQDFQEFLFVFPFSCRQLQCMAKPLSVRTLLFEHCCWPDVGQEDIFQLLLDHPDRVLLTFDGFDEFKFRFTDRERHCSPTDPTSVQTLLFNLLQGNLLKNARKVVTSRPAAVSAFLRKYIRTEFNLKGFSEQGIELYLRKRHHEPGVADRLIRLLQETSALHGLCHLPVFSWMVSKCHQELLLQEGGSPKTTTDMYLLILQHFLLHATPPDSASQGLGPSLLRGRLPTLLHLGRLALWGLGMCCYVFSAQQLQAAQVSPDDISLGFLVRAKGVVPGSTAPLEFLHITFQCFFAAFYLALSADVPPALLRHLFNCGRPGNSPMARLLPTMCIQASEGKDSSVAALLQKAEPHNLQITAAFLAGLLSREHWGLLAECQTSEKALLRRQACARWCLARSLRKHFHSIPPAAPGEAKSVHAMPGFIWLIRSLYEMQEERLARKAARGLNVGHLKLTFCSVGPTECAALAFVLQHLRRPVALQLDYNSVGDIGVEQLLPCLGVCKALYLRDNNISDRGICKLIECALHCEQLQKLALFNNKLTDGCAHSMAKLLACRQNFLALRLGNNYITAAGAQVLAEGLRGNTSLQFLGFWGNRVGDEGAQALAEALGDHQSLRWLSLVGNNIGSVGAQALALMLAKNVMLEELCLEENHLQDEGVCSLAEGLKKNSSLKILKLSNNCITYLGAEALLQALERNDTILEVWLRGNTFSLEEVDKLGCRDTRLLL
Activity calls are given as the source filed them.
Labels: 1 = active, -1 = inactive

> print(dat)
                                smiles.repr  category.label
1            COc1cccc(N=Nc2ccc3cccnc3c2O)c1              -1
2   O=C(Nc1nc2ccccc2n1Cc1ccc(Cl)cc1)c1ccco1              -1
3  O=C(c1ccc(S(=O)(=O)c2ccc(F)cc2)c([N+](=O)[O-])c1)N1CCCCCC1               1
4  COC(=O)c1sccc1NC(=O)CSc1ccccc1NS(=O)(=O)c1cc(Cl)ccc1Cl               1
5  COc1ccc(-c2nc(CN3CCN(c4ncnc5ccccc45)CC3)c(C)o2)c(OC)c1               1
